# Lookup of reported filipin (z-score) keyed by entry
Tested on: HeLa MZ
Experiment: filipin (cholesterol) integrated intensity within LBPA endosomes, Z-score; higher = more cholesterol in LBPA endosomes
Conditions: compound concentration in added solution (µM; 5 µl added to 20 µl cells): 10; 18 h
Where a name gives a salt, the structure may show the parent alone.
result-type: filipin (z-score)

- compound: "C=C1c2c(Cl)ccc(O)c2C(=O)C2=C(O)[C@]3(O)C(=O)C(C(N)=O)=C(O)[C@@H](N(C)C)[C@@H]3[C@@H](O)[C@H]12.O=C(O)c1cc(S(=O)(=O)O)ccc1O [Meclocycline sulfosalicylate]"
  reading: -0.823
- compound: "CCN(CCCc1ccccc1)CCCc1ccccc1 [Alverine citrate salt]"
  reading: 0.403
- compound: "Cc1onc(-c2ccccc2)c1C(=O)N[C@@H]1C(=O)N2[C@@H]1SC(C)(C)[C@@H]2C(=O)O [Oxacillin sodium]"
  reading: -0.445
- compound: "COc1cc(Cc2cnc(N)nc2N)cc(OC)c1OC"
  reading: -0.558
- compound: "Cc1nc2ccccn2c(=O)c1CCN1CCC(C(=O)c2ccc(F)cc2)CC1"
  reading: 2.01
- compound: "NCCCC(O)(P(=O)(O)O)P(=O)(O)O [Alendronate sodium]"
  reading: -0.588
- compound: "c1ccc(CNc2ncnc3nc[nH]c23)cc1"
  reading: -0.279
- compound: "CC[C@H]1OC(=O)[C@H](C)[C@@H](O[C@H]2C[C@@](C)(OC)[C@@H](O)[C@H](C)O2)[C@H](C)[C@@H](O[C@@H]2O[C@H](C)C[C@H](N(C)C)[C@H]2O)[C@](C)(O)C[C@@H](C)CN(C)[C@H](C)[C@@H](O)[C@]1(C)O"
  reading: 1.45
- compound: "Clc1cnccn1"
  reading: -0.492

----------
Tested on: A431
Test: whole-cell filipin (free cholesterol) integrated intensity, Z-score; higher = more cholesterol staining
Settings: compound concentration in added solution (µM; 5 µl added to 20 µl cells): 10; 18 h
# Lookup of reported whole-cell filipin (z-score) keyed by entry

- given-smiles: "C[C@]12C=CC(=O)C=C1CC[C@@H]1[C@@H]2[C@@H](O)C[C@@]2(C)[C@H]1CC[C@]2(O)C(=O)CO"
  whole-cell filipin (z-score): -0.674
- given-smiles: "C1N2CN3CN1CN(C2)C3"
  whole-cell filipin (z-score): -0.146
- given-smiles: "O=C(O)Cc1ccc(-c2ccccc2)cc1"
  whole-cell filipin (z-score): -0.402

----------
System: A431
Assay: filipin (cholesterol) integrated intensity within LBPA endosomes, Z-score; higher = more cholesterol in LBPA endosomes
Conditions: compound concentration in added solution (µM; 5 µl added to 20 µl cells): 10; 18 h
Where a name gives a salt, the structure may show the parent alone.
Classify on filipin (z-score) using class A = under -0.4, class B = from -0.4 up to -0.05, class C = -0.05 and over

- molecule: "CC(=O)[C@H]1CC[C@H]2[C@@H]3CCC4=CC(=O)CC[C@]4(C)[C@H]3CC[C@]12C [Progesterone]"
  study-target: "A431"
  assigned-class: "class C"
- molecule: "C[C@]12CC[C@@H]3c4ccc(O)cc4CC[C@H]3[C@@H]1CC[C@@H]2O [Estradiol-17 beta]"
  study-target: "A431"
  assigned-class: "class A"
- molecule: "O=C(O)/C=C/c1ccc(Cn2ccnc2)cc1 [Ozagrel hydrochloride]"
  study-target: "A431"
  assigned-class: "class B"
- molecule: "OCc1cc(C(O)CNCCCCCCOCCCCc2ccccc2)ccc1O (centres undefined) [Salmeterol]"
  study-target: "A431"
  assigned-class: "class C"
- molecule: "O=C(O)CCc1nc(-c2ccccc2)c(-c2ccccc2)o1 [Oxaprozin]"
  study-target: "A431"
  assigned-class: "class B"
- molecule: "Clc1ccc(COC(Cn2ccnc2)c2ccc(Cl)cc2Cl)c(Cl)c1 (centres undefined) [Miconazole]"
  study-target: "A431"
  assigned-class: "class C"
- molecule: "Cc1nnc(SCC2=C(C(=O)O)N3C(=O)[C@@H](NC(=O)Cn4cnnn4)[C@H]3SC2)s1 [Cefazolin sodium salt]"
  study-target: "A431"
  assigned-class: "class B"
- molecule: "C=CCSCC1Nc2cc(Cl)c(S(N)(=O)=O)cc2S(=O)(=O)N1 (centres undefined) [Althiazide]"
  study-target: "A431"
  assigned-class: "class A"
- molecule: "CC(C)(C)NC[C@@H](O)COc1cccc2c1CCCC2=O [(+) -Levobunolol hydrochloride]"
  study-target: "A431"
  assigned-class: "class B"
- molecule: "CCCC(C(=O)OCCN(CC)CC)(c1ccccc1)c1ccccc1 [Proadifen hydrochloride]"
  study-target: "A431"
  assigned-class: "class C"
- molecule: "Cn1c(=O)c2c(ncn2CCO)n(C)c1=O [Etofylline]"
  study-target: "A431"
  assigned-class: "class A"
- molecule: "CC(O)(P(=O)(O)O)P(=O)(O)O [Etidronic acid, disodium salt]"
  study-target: "A431"
  assigned-class: "class A"
- molecule: "CC[C@]12CCCN3CCc4c(n(c5ccccc45)[C@@](O)(C(=O)OC)C1)[C@@H]32 [Vincamine]"
  study-target: "A431"
  assigned-class: "class A"
- molecule: "CN(C)CCn1nnnc1SCC1=C(C(=O)O)N2C(=O)[C@@H](NC(=O)Cc3csc(N)n3)[C@H]2SC1 [Cefotiam hydrochloride]"
  study-target: "A431"
  assigned-class: "class A"
- molecule: "Cc1cc2c(s1)Nc1ccccc1N=C2N1CCN(C)CC1 [Olanzapine]"
  study-target: "A431"
  assigned-class: "class C"
- molecule: "CC(=O)SCC(Cc1ccccc1)C(=O)NCC(=O)OCc1ccccc1 (centres undefined) [Racecadotril]"
  study-target: "A431"
  assigned-class: "class A"
- molecule: "Cc1ccc(NC(=O)c2ccc(CN3CCN(C)CC3)cc2)cc1Nc1nccc(-c2cccnc2)n1 [Imatinib]"
  study-target: "A431"
  assigned-class: "class C"
- molecule: "Cc1scc2c1N(C(=O)CN1CCN(C)CC1)c1ccccc1NC2=O [Telenzepine dihydrochloride]"
  study-target: "A431"
  assigned-class: "class A"
- molecule: "CN1[C@@H]2CC[C@H]1C[C@@H](OC(c1ccccc1)c1ccccc1)C2 [Benztropine mesylate]"
  study-target: "A431"
  assigned-class: "class C"
- molecule: "CN(C)CCC=C1c2ccccc2CCc2ccccc21 [Amitryptiline hydrochloride]"
  study-target: "A431"
  assigned-class: "class C"
- molecule: "COc1cc(N)c(Cl)cc1C(=O)NC1CCN(CCCOc2ccc(F)cc2)CC1OC (centres undefined) [Cisapride]"
  study-target: "A431"
  assigned-class: "class C"
- molecule: "O=C1OC(CN2CCOCC2)CN1/N=C/c1ccc([N+](=O)[O-])o1 (centres undefined) [Furaltadone hydrochloride]"
  study-target: "A431"
  assigned-class: "class A"
- molecule: "C[n+]1ccccc1/C=N/O [Pralidoxime chloride]"
  study-target: "A431"
  assigned-class: "class A"
- molecule: "Clc1ccc(CO/N=C(\\Cn2ccnc2)c2ccc(Cl)cc2Cl)c(Cl)c1 [Oxiconazole Nitrate]"
  study-target: "A431"
  assigned-class: "class C"
- molecule: "CCCN(CCC)CCc1cccc2c1CC(=O)N2 [Ropinirole HCl]"
  study-target: "A431"
  assigned-class: "class B"
